Experimental system: T1, human GPC3 (human, UniProt P51654 25-563)
T1 construct: range 25-563; soluble analyte; also called soluble human GPC3; glypican 3
T1 sequence (P51654 25-563 limits assumed): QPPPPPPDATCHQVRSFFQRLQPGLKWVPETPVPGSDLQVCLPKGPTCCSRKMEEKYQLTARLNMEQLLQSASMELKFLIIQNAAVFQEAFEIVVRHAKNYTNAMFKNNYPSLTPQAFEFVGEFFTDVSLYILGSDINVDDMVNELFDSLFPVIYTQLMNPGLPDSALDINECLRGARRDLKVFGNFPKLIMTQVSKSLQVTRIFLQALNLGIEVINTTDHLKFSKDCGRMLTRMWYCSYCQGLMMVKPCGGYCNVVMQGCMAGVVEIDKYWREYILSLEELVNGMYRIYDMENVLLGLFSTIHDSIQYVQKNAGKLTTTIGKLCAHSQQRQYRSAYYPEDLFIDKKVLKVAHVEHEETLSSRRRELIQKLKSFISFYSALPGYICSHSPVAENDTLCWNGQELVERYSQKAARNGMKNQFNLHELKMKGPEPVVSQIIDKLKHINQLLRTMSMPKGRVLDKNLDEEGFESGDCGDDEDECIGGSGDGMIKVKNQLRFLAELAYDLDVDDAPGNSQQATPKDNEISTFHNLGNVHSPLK
Experimental protocol: SPR
pKd: −log10 of the molar value.

>  <Binder>
H0610-G1dh/none-Hi-Kn010G3/TR01L012-k0 (antibody, V domains shown, one-arm) VH: QVQLVQSGAEVKKPGASVKVSCKASGYTFTDYEMHWIRQPPGQGLEWIGAIDGKTPDTAYSQKFKGRVTLTADKSTSTAYMELSSLTSEDTAVYYCTRFYSYTYWGQGTLVTVSS VL: DIVMTQSPLSLPVTPGEPASISCRSSQSLVHSNRNTYLHWYLQKPGQSPQLLIYKVSNRFRGVPDRFSGSGSGTDFTLKISRVEAEDVGVYYCGQGTQVPYTFGQGTKVEIE

>  <pKd>
8.37

$$$$
>  <Binder>
GCH054-G1dh/none-Hi-Kn010G3/L0246-k0 (antibody, V domains shown, one-arm) VH: QVQLVQSGAEVKKPGASVTVSCKASGYTFTDYEMHWIRQPPGEGLEWIGAIDGETPDTAYSEKFKGRVTLTADKSTSTAYMELSSLTSEDTAVYYCTRFYSYTYWGQGTLVTVSS VL: DIVMTQSPLSLPVTPGEPASISCRSSQSPVHSNRNTYIQWYQQKPGQAPRLLIYKVSNRFSGVPDRFSGSGSGTDFTLKISRVEAEDVGVYYCSQGTQVPYTFGQGTKLEIK

>  <pKd>
10.50

$$$$
>  <Binder>
H0610-G1dh/none-Hi-Kn010G3/L0154-k0 (antibody, V domains shown, one-arm) VH: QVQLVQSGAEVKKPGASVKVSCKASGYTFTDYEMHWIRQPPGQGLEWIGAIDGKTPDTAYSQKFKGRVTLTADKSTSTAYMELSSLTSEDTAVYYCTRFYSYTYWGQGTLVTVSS VL: DIVMTQSPLSLPVTPGEPASISCRSSQSLVHSNRNTYLHWYQQKPGQAPRLLIYKVSNRFSGVPDRFSGSGSGTDFTLKISRVEAEDVGVYYCIQGTQVPYTFGQGTKLEIK

>  <pKd>
9.00

$$$$
